Origin of values: paper PMC3961306

- Test system: panel of more than 300 wild-type and mutant kinases (313 kinase panel)
- TEST: Kinase profiling in a biochemical assay panel (mobility shift assays and ELISA), %-inhibition at 1 μM; selectivity entropy
- CONDITIONS_USED: 1 µM
Below, each entry is listed alongside its reported %-inhibition of EGFR(d746-750/T790M).
MEASURED_ATTRIBUTE: %-inhibition of EGFR(d746-750/T790M) (%)

compound="C[C@@H](Oc1cc(-c2cnn(C3CCNCC3)c2)cnc1N)c1c(Cl)ccc(F)c1Cl [crizotinib]" subject_of_test="panel of more than 300 wild-type and mutant kinases (313 kinase panel)" measured_attribute="%-inhibition of EGFR(d746-750/T790M)" units_symbol=% reading=8
compound="COc1cc(Nc2c(C#N)cnc3cc(OCCCN4CCN(C)CC4)c(OC)cc23)c(Cl)cc1Cl [bosutinib]" subject_of_test="panel of more than 300 wild-type and mutant kinases (313 kinase panel)" measured_attribute="%-inhibition of EGFR(d746-750/T790M)" units_symbol=% reading=92
compound="N#CC[C@H](C1CCCC1)n1cc(-c2ncnc3[nH]ccc23)cn1 [ruxolitinib]" subject_of_test="panel of more than 300 wild-type and mutant kinases (313 kinase panel)" measured_attribute="%-inhibition of EGFR(d746-750/T790M)" units_symbol=% reading=1.32
compound="COc1cc2c(Nc3ccc(Br)cc3F)ncnc2cc1OCC1CCN(C)CC1 [vandetanib]" subject_of_test="panel of more than 300 wild-type and mutant kinases (313 kinase panel)" measured_attribute="%-inhibition of EGFR(d746-750/T790M)" units_symbol=% reading=85

---

# %-inhibition of LOK annotations
- SUBJECT_OF_TEST: panel of more than 300 wild-type and mutant kinases (313 kinase panel) (Homo sapiens, UniProt O94804)
- Sequence (O94804 whole entry, change not shown): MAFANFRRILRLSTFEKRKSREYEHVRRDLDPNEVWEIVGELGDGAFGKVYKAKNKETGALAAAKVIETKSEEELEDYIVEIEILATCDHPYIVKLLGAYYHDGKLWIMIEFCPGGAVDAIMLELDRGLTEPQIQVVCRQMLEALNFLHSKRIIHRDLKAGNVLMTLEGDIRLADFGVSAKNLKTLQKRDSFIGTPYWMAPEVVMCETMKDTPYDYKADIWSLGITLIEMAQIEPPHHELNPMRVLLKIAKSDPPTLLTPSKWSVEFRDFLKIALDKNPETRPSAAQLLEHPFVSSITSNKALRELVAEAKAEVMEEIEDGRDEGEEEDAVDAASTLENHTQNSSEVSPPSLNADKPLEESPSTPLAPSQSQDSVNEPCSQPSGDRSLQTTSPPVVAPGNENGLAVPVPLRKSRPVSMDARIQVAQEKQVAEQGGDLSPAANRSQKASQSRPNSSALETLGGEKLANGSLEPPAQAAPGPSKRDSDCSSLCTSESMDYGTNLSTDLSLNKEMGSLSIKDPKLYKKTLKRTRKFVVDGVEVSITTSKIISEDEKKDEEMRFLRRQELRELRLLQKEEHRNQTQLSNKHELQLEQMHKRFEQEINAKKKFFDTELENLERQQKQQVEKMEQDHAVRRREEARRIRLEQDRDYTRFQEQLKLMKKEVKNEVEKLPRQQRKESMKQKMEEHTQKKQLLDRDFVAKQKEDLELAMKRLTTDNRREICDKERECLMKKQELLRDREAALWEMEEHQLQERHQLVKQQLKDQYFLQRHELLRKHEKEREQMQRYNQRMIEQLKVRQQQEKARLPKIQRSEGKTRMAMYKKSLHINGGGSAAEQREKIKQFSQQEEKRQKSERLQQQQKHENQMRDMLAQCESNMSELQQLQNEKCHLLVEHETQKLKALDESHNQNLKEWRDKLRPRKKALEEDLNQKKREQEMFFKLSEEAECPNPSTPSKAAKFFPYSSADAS
- TEST: Kinase profiling in a biochemical assay panel (mobility shift assays and ELISA), %-inhibition at 1 μM; selectivity entropy
- CONDITIONS_USED: kinase LOK; compound at 1 μM
MEASURED_ATTRIBUTE: %-inhibition of LOK

compound="CCCS(=O)(=O)Nc1ccc(F)c(C(=O)c2c[nH]c3ncc(-c4ccc(Cl)cc4)cc23)c1F [vemurafenib]" reading=-1%
compound="CCN(CC)CCNC(=O)c1c(C)[nH]c(/C=C2\\C(=O)Nc3ccc(F)cc32)c1C [sunitinib]" reading=92%
compound="O=S(=O)(c1cccc2cnccc12)N1CCCNCC1 [fasudil]" reading=11%
compound="N#CC[C@H](C1CCCC1)n1cc(-c2ncnc3[nH]ccc23)cn1 [ruxolitinib]" reading=3.51%
compound="CO[C@H]1C[C@@H]2CC[C@@H](C)[C@@](O)(O2)C(=O)C(=O)N2CCCC[C@H]2C(=O)O[C@H]([C@H](C)C[C@@H]2CC[C@@H](OC(=O)C(C)(CO)CO)[C@H](OC)C2)CC(=O)[C@H](C)/C=C(\\C)[C@@H](O)[C@@H](OC)C(=O)[C@H](C)C[C@H](C)/C=C/C=C/C=C/1C [temsirolimus]" reading=-5%
compound="COc1cc2nccc(Oc3ccc(NC(=O)C4(C(=O)Nc5ccc(F)cc5)CC4)cc3)c2cc1OC [cabozantinib]" reading=96%
compound="COc1cc2c(Nc3ccc(Br)cc3F)ncnc2cc1OCC1CCN(C)CC1 [vandetanib]" reading=92%
compound="CS(=O)(=O)CCNCc1ccc(-c2ccc3ncnc(Nc4ccc(OCc5cccc(F)c5)c(Cl)c4)c3c2)o1 [lapatinib]" reading=17%
compound="C[C@@H](Oc1cc(-c2cnn(C3CCNCC3)c2)cnc1N)c1c(Cl)ccc(F)c1Cl [crizotinib]" reading=98%
compound="CO[C@H]1C[C@@H]2CC[C@@H](C)[C@@](O)(O2)C(=O)C(=O)N2CCCC[C@H]2C(=O)O[C@H]([C@H](C)C[C@@H]2CC[C@@H](OCCO)[C@H](OC)C2)CC(=O)[C@H](C)/C=C(\\C)[C@@H](O)[C@@H](OC)C(=O)[C@H](C)C[C@H](C)/C=C/C=C/C=C/1C [everolimus]" reading=-9%
compound="CNC(=O)c1cc(Oc2ccc(NC(=O)Nc3ccc(Cl)c(C(F)(F)F)c3)c(F)c2)ccn1 [regorafenib]" reading=80%
compound="Cc1ccc(Nc2nccc(N(C)c3ccc4c(C)n(C)nc4c3)n2)cc1S(N)(=O)=O [pazopanib]" reading=70%
compound="CC(=O)Nc1cccc(-n2c(=O)n(C3CC3)c(=O)c3c(Nc4ccc(I)cc4F)n(C)c(=O)c(C)c32)c1 [trametinib]" reading=12%

---

- SUBJECT_OF_TEST: panel of more than 300 wild-type and mutant kinases (313 kinase panel) (Homo sapiens, UniProt P49841)
- TEST: Kinase profiling in a biochemical assay panel (mobility shift assays and ELISA), %-inhibition at 1 μM; selectivity entropy
- CONDITIONS_USED: kinase GSK3β; compound at 1 μM
Overview of reported %-inhibition of GSK3β across a group of compounds:
MEASURED_ATTRIBUTE: %-inhibition of GSK3β (%)

compound="COc1cc2c(Nc3ccc(Br)cc3F)ncnc2cc1OCC1CCN(C)CC1 [vandetanib]" reading=-3.71
compound="CO[C@H]1C[C@@H]2CC[C@@H](C)[C@@](O)(O2)C(=O)C(=O)N2CCCC[C@H]2C(=O)O[C@H]([C@H](C)C[C@@H]2CC[C@@H](OC(=O)C(C)(CO)CO)[C@H](OC)C2)CC(=O)[C@H](C)/C=C(\\C)[C@@H](O)[C@@H](OC)C(=O)[C@H](C)C[C@H](C)/C=C/C=C/C=C/1C [temsirolimus]" reading=-7.62
compound="COc1cc2nccc(Oc3ccc(NC(=O)C4(C(=O)Nc5ccc(F)cc5)CC4)cc3)c2cc1OC [cabozantinib]" reading=-3.51
compound="CO[C@H]1C[C@@H]2CC[C@@H](C)[C@@](O)(O2)C(=O)C(=O)N2CCCC[C@H]2C(=O)O[C@H]([C@H](C)C[C@@H]2CC[C@@H](OCCO)[C@H](OC)C2)CC(=O)[C@H](C)/C=C(\\C)[C@@H](O)[C@@H](OC)C(=O)[C@H](C)C[C@H](C)/C=C/C=C/C=C/1C [everolimus]" reading=-6
compound="N#CC[C@H](C1CCCC1)n1cc(-c2ncnc3[nH]ccc23)cn1 [ruxolitinib]" reading=10

---

Below: a set of entries, each annotated with reported %-inhibition of IRR.
- SUBJECT_OF_TEST: panel of more than 300 wild-type and mutant kinases (313 kinase panel) (Homo sapiens, UniProt P14616)
- Sequence (P14616 27-1297, change not shown): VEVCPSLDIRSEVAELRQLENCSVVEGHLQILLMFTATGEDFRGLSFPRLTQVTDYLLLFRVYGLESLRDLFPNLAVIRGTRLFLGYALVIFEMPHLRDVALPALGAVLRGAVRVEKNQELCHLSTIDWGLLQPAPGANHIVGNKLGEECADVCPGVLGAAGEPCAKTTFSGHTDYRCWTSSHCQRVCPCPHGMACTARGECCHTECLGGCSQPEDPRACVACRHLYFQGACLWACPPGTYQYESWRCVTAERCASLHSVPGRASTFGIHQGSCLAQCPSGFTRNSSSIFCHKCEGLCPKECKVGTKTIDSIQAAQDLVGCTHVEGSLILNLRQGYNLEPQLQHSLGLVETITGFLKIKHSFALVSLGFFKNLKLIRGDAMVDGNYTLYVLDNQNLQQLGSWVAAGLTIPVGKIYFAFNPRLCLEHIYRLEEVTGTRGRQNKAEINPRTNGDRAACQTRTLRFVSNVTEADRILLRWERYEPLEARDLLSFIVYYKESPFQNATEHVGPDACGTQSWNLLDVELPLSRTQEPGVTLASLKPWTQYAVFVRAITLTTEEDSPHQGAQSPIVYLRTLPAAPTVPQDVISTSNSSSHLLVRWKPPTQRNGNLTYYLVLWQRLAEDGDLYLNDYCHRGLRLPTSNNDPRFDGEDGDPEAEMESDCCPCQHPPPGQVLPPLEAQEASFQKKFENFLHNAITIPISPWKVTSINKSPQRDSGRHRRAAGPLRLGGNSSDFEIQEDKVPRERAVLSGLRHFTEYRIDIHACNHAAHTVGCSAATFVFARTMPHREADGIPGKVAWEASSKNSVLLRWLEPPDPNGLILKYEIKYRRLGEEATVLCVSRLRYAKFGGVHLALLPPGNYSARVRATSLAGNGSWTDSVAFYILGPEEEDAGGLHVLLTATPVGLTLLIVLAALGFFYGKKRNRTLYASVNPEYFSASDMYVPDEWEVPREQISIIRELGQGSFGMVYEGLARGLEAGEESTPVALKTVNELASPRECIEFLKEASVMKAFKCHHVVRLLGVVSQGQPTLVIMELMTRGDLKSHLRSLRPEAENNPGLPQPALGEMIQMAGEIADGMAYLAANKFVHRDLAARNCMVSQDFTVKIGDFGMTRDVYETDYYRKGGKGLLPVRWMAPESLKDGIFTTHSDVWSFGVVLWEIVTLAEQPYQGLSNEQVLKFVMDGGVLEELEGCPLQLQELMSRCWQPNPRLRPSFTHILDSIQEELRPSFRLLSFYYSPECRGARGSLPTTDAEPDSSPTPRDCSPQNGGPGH
- TEST: Kinase profiling in a biochemical assay panel (mobility shift assays and ELISA), %-inhibition at 1 μM; selectivity entropy
- CONDITIONS_USED: kinase IRR; compound at 1 μM
MEASURED_ATTRIBUTE: %-inhibition of IRR (%)

compound="CS(=O)(=O)CCNCc1ccc(-c2ccc3ncnc(Nc4ccc(OCc5cccc(F)c5)c(Cl)c4)c3c2)o1 [lapatinib]" measured_attribute="%-inhibition of IRR" units_symbol=% reading=-4
compound="CO[C@H]1C[C@@H]2CC[C@@H](C)[C@@](O)(O2)C(=O)C(=O)N2CCCC[C@H]2C(=O)O[C@H]([C@H](C)C[C@@H]2CC[C@@H](OC(=O)C(C)(CO)CO)[C@H](OC)C2)CC(=O)[C@H](C)/C=C(\\C)[C@@H](O)[C@@H](OC)C(=O)[C@H](C)C[C@H](C)/C=C/C=C/C=C/1C [temsirolimus]" measured_attribute="%-inhibition of IRR" units_symbol=% reading=-13
compound="CNC(=O)c1cc(Oc2ccc(NC(=O)Nc3ccc(Cl)c(C(F)(F)F)c3)c(F)c2)ccn1 [regorafenib]" measured_attribute="%-inhibition of IRR" units_symbol=% reading=-4
compound="CCCS(=O)(=O)Nc1ccc(F)c(C(=O)c2c[nH]c3ncc(-c4ccc(Cl)cc4)cc23)c1F [vemurafenib]" measured_attribute="%-inhibition of IRR" units_symbol=% reading=21
compound="COc1cc2c(Nc3ccc(Br)cc3F)ncnc2cc1OCC1CCN(C)CC1 [vandetanib]" measured_attribute="%-inhibition of IRR" units_symbol=% reading=-3.23
compound="O=S(=O)(c1cccc2cnccc12)N1CCCNCC1 [fasudil]" measured_attribute="%-inhibition of IRR" units_symbol=% reading=0.15
compound="N#CC[C@H](C1CCCC1)n1cc(-c2ncnc3[nH]ccc23)cn1 [ruxolitinib]" measured_attribute="%-inhibition of IRR" units_symbol=% reading=0.404
compound="COc1cc2nccc(Oc3ccc(NC(=O)C4(C(=O)Nc5ccc(F)cc5)CC4)cc3)c2cc1OC [cabozantinib]" measured_attribute="%-inhibition of IRR" units_symbol=% reading=66
compound="Cc1ccc(Nc2nccc(N(C)c3ccc4c(C)n(C)nc4c3)n2)cc1S(N)(=O)=O [pazopanib]" measured_attribute="%-inhibition of IRR" units_symbol=% reading=16
compound="Cc1nc(Nc2ncc(C(=O)Nc3c(C)cccc3Cl)s2)cc(N2CCN(CCO)CC2)n1 [dasatinib]" measured_attribute="%-inhibition of IRR" units_symbol=% reading=-16
compound="CC(C)(C)c1nc(-c2cccc(NS(=O)(=O)c3c(F)cccc3F)c2F)c(-c2ccnc(N)n2)s1 [dabrafenib]" measured_attribute="%-inhibition of IRR" units_symbol=% reading=10
compound="COc1cc(Nc2c(C#N)cnc3cc(OCCCN4CCN(C)CC4)c(OC)cc23)c(Cl)cc1Cl [bosutinib]" measured_attribute="%-inhibition of IRR" units_symbol=% reading=57
compound="CO[C@H]1C[C@@H]2CC[C@@H](C)[C@@](O)(O2)C(=O)C(=O)N2CCCC[C@H]2C(=O)O[C@H]([C@H](C)C[C@@H]2CC[C@@H](OCCO)[C@H](OC)C2)CC(=O)[C@H](C)/C=C(\\C)[C@@H](O)[C@@H](OC)C(=O)[C@H](C)C[C@H](C)/C=C/C=C/C=C/1C [everolimus]" measured_attribute="%-inhibition of IRR" units_symbol=% reading=0.808
